Attribution: BigSolDB 2.1

Details: in transcutol, 298.15 K
Measured Metric: solubility (mole fraction)

Request the reported solubility (mole fraction) associated with "CN(Cc1ccccc1)CN1C(=O)C(=NNC(=O)c2ccccc2OCc2ccccc2)c2ccccc21"
0.00394

* * *

Details: in sec-butanol, 298.15 K
Measured Metric: solubility (mole fraction)
Just the number, please.

Given the entry "CN(Cc1ccccc1)CN1C(=O)C(=NNC(=O)c2ccccc2OCc2ccccc2)c2ccccc21" , report its measured solubility (mole fraction).
0.000808

* * *

Details: in PEG-400, 303.15 K
Measured Metric: solubility (mole fraction)
Write no unit; give the number alone.

Need solubility (mole fraction) of "CN(Cc1ccccc1)CN1C(=O)C(=NNC(=O)c2ccccc2OCc2ccccc2)c2ccccc21" , thanks.
0.00781
